The origin of these recorded values is patent EP0252525B1.

target: HPA (Homo sapiens); assay: Binding mode (distribution of hydrolysis products) by HPLC; type: biochemical; conditions: share of product G3P
Sequence (P04746 16-511): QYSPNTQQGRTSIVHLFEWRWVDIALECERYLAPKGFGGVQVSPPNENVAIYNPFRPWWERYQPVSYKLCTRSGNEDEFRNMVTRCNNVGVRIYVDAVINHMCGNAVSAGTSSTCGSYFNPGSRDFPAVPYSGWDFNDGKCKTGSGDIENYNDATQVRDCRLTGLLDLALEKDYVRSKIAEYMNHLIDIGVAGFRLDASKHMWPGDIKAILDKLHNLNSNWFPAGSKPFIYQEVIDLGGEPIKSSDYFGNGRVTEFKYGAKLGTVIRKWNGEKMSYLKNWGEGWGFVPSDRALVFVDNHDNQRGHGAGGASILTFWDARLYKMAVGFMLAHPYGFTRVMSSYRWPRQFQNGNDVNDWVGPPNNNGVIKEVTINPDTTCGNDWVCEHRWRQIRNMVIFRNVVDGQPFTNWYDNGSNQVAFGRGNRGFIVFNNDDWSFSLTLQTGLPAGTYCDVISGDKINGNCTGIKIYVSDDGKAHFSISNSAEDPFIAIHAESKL
PROPERTY: Hydrolysis product G3P (%)
Output spec: scalar in %, unitless text.

Worked set:
O=[N+]([O-])c1ccc(O[C@H]2O[C@H](CO)[C@@H](O[C@H]3O[C@H](CO)[C@@H](O[C@H]4O[C@H](CO)[C@@H](O[C@H]5O[C@H](CO)[C@@H](O[C@H]6O[C@H](CO)[C@@H](O[C@H]7O[C@H](COCc8ccccc8)[C@@H](O)[C@H](O)[C@H]7O)[C@H](O)[C@H]6O)[C@H](O)[C@H]5O)[C@H](O)[C@H]4O)[C@H](O)[C@H]3O)[C@H](O)[C@H]2O)cc1 :: 73
O=[N+]([O-])c1ccc(O[C@H]2O[C@H](CO)[C@@H](O[C@H]3O[C@H](CO)[C@@H](O[C@H]4O[C@H](CO)[C@@H](O[C@H]5O[C@H](CO)[C@@H](O[C@H]6O[C@H](CO)[C@@H](O)[C@H](O)[C@H]6O)[C@H](O)[C@H]5O)[C@H](O)[C@H]4O)[C@H](O)[C@H]3O)[C@H](O)[C@H]2O)cc1 [Substrate G5P] :: 12
O=[N+]([O-])c1ccc(O[C@H]2O[C@H](CO)[C@@H](O[C@H]3O[C@H](CO)[C@@H](O[C@H]4O[C@H](CO)[C@@H](O[C@H]5O[C@H](CO)[C@@H](O[C@H]6O[C@H](CO)[C@@H](O[C@H]7O[C@H](CO)[C@@H](O[C@H]8O[C@H](CO)[C@@H](O)[C@H](O)[C@H]8O)[C@H](O)[C@H]7O)[C@H](O)[C@H]6O)[C@H](O)[C@H]5O)[C@H](O)[C@H]4O)[C@H](O)[C@H]3O)[C@H](O)[C@H]2O)cc1 [Substrate G7P] :: 30

Next:
Lookup result for "O=[N+]([O-])c1ccc(O[C@H]2O[C@H](CO)[C@@H](O[C@H]3O[C@H](CO)[C@@H](O[C@H]4O[C@H](CO)[C@@H](O[C@H]5O[C@H](CO)[C@@H](O[C@H]6O[C@H](CO)[C@@H](O[C@H]7O[C@H](CO)[C@@H](O[C@H]8O[C@H](COCc9ccccc9)[C@@H](O)[C@H](O)[C@H]8O)[C@H](O)[C@H]7O)[C@H](O)[C@H]6O)[C@H](O)[C@H]5O)[C@H](O)[C@H]4O)[C@H](O)[C@H]3O)[C@H](O)[C@H]2O)cc1" ; measured Hydrolysis product G3P: 38

----------
# Hydrolysis product GP per entry
target: HPA (Homo sapiens); assay: Binding mode (distribution of hydrolysis products) by HPLC; format: biochemical; settings: share of product GP
Output spec: scalar in %, unitless text.

Worked set:
O=[N+]([O-])c1ccc(O[C@H]2O[C@H](CO)[C@@H](O[C@H]3O[C@H](CO)[C@@H](O[C@H]4O[C@H](CO)[C@@H](O[C@H]5O[C@H](CO)[C@@H](O)[C@H](O)[C@H]5O)[C@H](O)[C@H]4O)[C@H](O)[C@H]3O)[C@H](O)[C@H]2O)cc1 [Substrate G4P] :: 45
O=[N+]([O-])c1ccc(O[C@H]2O[C@H](CO)[C@@H](O[C@H]3O[C@H](CO)[C@@H](O[C@H]4O[C@H](CO)[C@@H](O[C@H]5O[C@H](CO)[C@@H](O[C@H]6O[C@H](CO)[C@@H](O[C@H]7O[C@@H]8COC(c9ccccc9)O[C@H]8[C@H](O)[C@H]7O)[C@H](O)[C@H]6O)[C@H](O)[C@H]5O)[C@H](O)[C@H]4O)[C@H](O)[C@H]3O)[C@H](O)[C@H]2O)cc1 (stereo partly drawn) [BDG6P] :: 15

Next:
Lookup result for O=[N+]([O-])c1ccc(O[C@H]2O[C@H](CO)[C@@H](O[C@H]3O[C@H](CO)[C@@H](O[C@H]4O[C@H](CO)[C@@H](O[C@H]5O[C@H](CO)[C@@H](O[C@H]6O[C@H](CO)[C@@H](O[C@H]7O[C@H](CO)[C@@H](O)[C@H](O)[C@H]7O)[C@H](O)[C@H]6O)[C@H](O)[C@H]5O)[C@H](O)[C@H]4O)[C@H](O)[C@H]3O)[C@H](O)[C@H]2O)cc1 [Substrate G6P] ; measured Hydrolysis product GP: 2

----------
biological target: HSA (Homo sapiens); assay: Binding mode (distribution of hydrolysis products) by HPLC; assay type: biochemical; settings: share of product G4P
Sequence (P0DUB6 16-511): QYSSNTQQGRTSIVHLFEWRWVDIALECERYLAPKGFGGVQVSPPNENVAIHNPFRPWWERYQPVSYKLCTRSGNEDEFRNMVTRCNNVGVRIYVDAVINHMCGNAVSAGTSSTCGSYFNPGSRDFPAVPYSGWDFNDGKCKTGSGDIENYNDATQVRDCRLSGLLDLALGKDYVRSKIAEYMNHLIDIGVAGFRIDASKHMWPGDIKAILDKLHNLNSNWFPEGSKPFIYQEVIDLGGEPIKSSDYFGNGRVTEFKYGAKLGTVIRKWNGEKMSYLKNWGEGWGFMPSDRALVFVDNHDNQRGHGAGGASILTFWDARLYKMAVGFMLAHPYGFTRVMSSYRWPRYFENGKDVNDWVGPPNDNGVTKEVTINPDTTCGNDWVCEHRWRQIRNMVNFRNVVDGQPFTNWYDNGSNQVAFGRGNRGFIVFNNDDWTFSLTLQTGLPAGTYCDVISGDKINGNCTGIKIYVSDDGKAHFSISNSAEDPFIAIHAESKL
PROPERTY: Hydrolysis product G4P (%)
Output spec: scalar in %, unitless text.

Worked set:
O=[N+]([O-])c1ccc(O[C@H]2O[C@H](CO)[C@@H](O[C@H]3O[C@H](CO)[C@@H](O[C@H]4O[C@H](CO)[C@@H](O[C@H]5O[C@H](CO)[C@@H](O[C@H]6O[C@H](CO)[C@@H](O[C@H]7O[C@H](COCc8ccccc8)[C@@H](O)[C@H](O)[C@H]7O)[C@H](O)[C@H]6O)[C@H](O)[C@H]5O)[C@H](O)[C@H]4O)[C@H](O)[C@H]3O)[C@H](O)[C@H]2O)cc1 :: 0
O=[N+]([O-])c1ccc(O[C@H]2O[C@H](CO)[C@@H](O[C@H]3O[C@H](CO)[C@@H](O[C@H]4O[C@H](CO)[C@@H](O[C@H]5O[C@H](COCc6ccccc6)[C@@H](O)[C@H](O)[C@H]5O)[C@H](O)[C@H]4O)[C@H](O)[C@H]3O)[C@H](O)[C@H]2O)cc1 :: 0
O=[N+]([O-])c1ccc(O[C@H]2O[C@H](CO)[C@@H](O[C@H]3O[C@H](CO)[C@@H](O[C@H]4O[C@H](CO)[C@@H](O[C@H]5O[C@H](CO)[C@@H](O[C@H]6O[C@H](CO)[C@@H](O[C@H]7O[C@H](CO)[C@@H](O[C@H]8O[C@H](CO)[C@@H](O)[C@H](O)[C@H]8O)[C@H](O)[C@H]7O)[C@H](O)[C@H]6O)[C@H](O)[C@H]5O)[C@H](O)[C@H]4O)[C@H](O)[C@H]3O)[C@H](O)[C@H]2O)cc1 [Substrate G7P] :: 60

Next:
Lookup result for O=[N+]([O-])c1ccc(O[C@H]2O[C@H](CO)[C@@H](O[C@H]3O[C@H](CO)[C@@H](O[C@H]4O[C@H](CO)[C@@H](O[C@H]5O[C@H](CO)[C@@H](O[C@H]6O[C@H](CO)[C@@H](O[C@H]7O[C@H](CO)[C@@H](O)[C@H](O)[C@H]7O)[C@H](O)[C@H]6O)[C@H](O)[C@H]5O)[C@H](O)[C@H]4O)[C@H](O)[C@H]3O)[C@H](O)[C@H]2O)cc1 [Substrate G6P] ; measured Hydrolysis product G4P: 0

----------
target: HSA (Homo sapiens); experiment: Binding mode (distribution of hydrolysis products) by HPLC; assay type: biochemical; conditions: share of product GP
PROPERTY: Hydrolysis product GP (%)

Worked set:
O=[N+]([O-])c1ccc(O[C@H]2O[C@H](CO)[C@@H](O[C@H]3O[C@H](CO)[C@@H](O[C@H]4O[C@H](CO)[C@@H](O[C@H]5O[C@H](CO)[C@@H](O[C@H]6O[C@H](CO)[C@@H](O[C@H]7O[C@H](CO)[C@@H](O[C@H]8O[C@@H]9COC(c%10ccccc%10)O[C@H]9[C@H](O)[C@H]8O)[C@H](O)[C@H]7O)[C@H](O)[C@H]6O)[C@H](O)[C@H]5O)[C@H](O)[C@H]4O)[C@H](O)[C@H]3O)[C@H](O)[C@H]2O)cc1 (some centres unmarked) :: 5
O=[N+]([O-])c1ccc(O[C@H]2O[C@H](CO)[C@@H](O[C@H]3O[C@H](CO)[C@@H](O[C@H]4O[C@H](CO)[C@@H](O[C@H]5O[C@H](CO)[C@@H](O[C@H]6O[C@H](COCc7ccccc7)[C@@H](O)[C@H](O)[C@H]6O)[C@H](O)[C@H]5O)[C@H](O)[C@H]4O)[C@H](O)[C@H]3O)[C@H](O)[C@H]2O)cc1 :: 2
O=[N+]([O-])c1ccc(O[C@H]2O[C@H](CO)[C@@H](O[C@H]3O[C@H](CO)[C@@H](O[C@H]4O[C@H](CO)[C@@H](O[C@H]5O[C@H](CO)[C@@H](O[C@H]6O[C@H](CO)[C@@H](O[C@H]7O[C@H](CO)[C@@H](O[C@H]8O[C@H](COCc9ccccc9)[C@@H](O)[C@H](O)[C@H]8O)[C@H](O)[C@H]7O)[C@H](O)[C@H]6O)[C@H](O)[C@H]5O)[C@H](O)[C@H]4O)[C@H](O)[C@H]3O)[C@H](O)[C@H]2O)cc1 :: 2
O=[N+]([O-])c1ccc(O[C@H]2O[C@H](CO)[C@@H](O[C@H]3O[C@H](CO)[C@@H](O[C@H]4O[C@H](CO)[C@@H](O[C@H]5O[C@H](CO)[C@@H](O[C@H]6O[C@H](CO)[C@@H](O[C@H]7O[C@H](CO)[C@@H](O)[C@H](O)[C@H]7O)[C@H](O)[C@H]6O)[C@H](O)[C@H]5O)[C@H](O)[C@H]4O)[C@H](O)[C@H]3O)[C@H](O)[C@H]2O)cc1 [Substrate G6P] :: 7
O=[N+]([O-])c1ccc(O[C@H]2O[C@H](CO)[C@@H](O[C@H]3O[C@H](CO)[C@@H](O[C@H]4O[C@H](CO)[C@@H](O[C@H]5O[C@H](CO)[C@@H](O[C@H]6O[C@H](CO)[C@@H](O[C@H]7O[C@H](COCc8ccccc8)[C@@H](O)[C@H](O)[C@H]7O)[C@H](O)[C@H]6O)[C@H](O)[C@H]5O)[C@H](O)[C@H]4O)[C@H](O)[C@H]3O)[C@H](O)[C@H]2O)cc1 :: 3
O=[N+]([O-])c1ccc(O[C@H]2O[C@H](CO)[C@@H](O[C@H]3O[C@H](CO)[C@@H](O[C@H]4O[C@H](CO)[C@@H](O[C@H]5O[C@H](CO)[C@@H](O[C@H]6O[C@H](CO)[C@@H](O[C@H]7O[C@H](CO)[C@@H](O[C@H]8O[C@H](CO)[C@@H](O)[C@H](O)[C@H]8O)[C@H](O)[C@H]7O)[C@H](O)[C@H]6O)[C@H](O)[C@H]5O)[C@H](O)[C@H]4O)[C@H](O)[C@H]3O)[C@H](O)[C@H]2O)cc1 [Substrate G7P] :: 2

(I) O=[N+]([O-])c1ccc(O[C@H]2O[C@H](CO)[C@@H](O[C@H]3O[C@H](CO)[C@@H](O[C@H]4O[C@H](CO)[C@@H](O[C@H]5O[C@H](COCc6ccccc6)[C@@H](O)[C@H](O)[C@H]5O)[C@H](O)[C@H]4O)[C@H](O)[C@H]3O)[C@H](O)[C@H]2O)cc1
(II) O=[N+]([O-])c1ccc(O[C@H]2O[C@H](CO)[C@@H](O[C@H]3O[C@H](CO)[C@@H](O[C@H]4O[C@H](CO)[C@@H](O[C@H]5O[C@H](CO)[C@@H](O)[C@H](O)[C@H]5O)[C@H](O)[C@H]4O)[C@H](O)[C@H]3O)[C@H](O)[C@H]2O)cc1 [Substrate G4P]
Compare I and II by numeric Hydrolysis product GP and name the larger one. Indicate which entry you chose by stating its label.
I
